biological target: GST-PTEN (amino-terminal phosphatase domain) (Homo sapiens, UniProt P60484 1-200); test: filter binding, Scatchard; data not shown; Filter binding: 50 mM Tris (pH not given), 1 h, 40 µl, protein 0.5 mg/ml (Fig. 2E: GST-PTEN 25 µM), PBS washes; co-precipitation 1 h at room temperature, 1 µM aptamer; pull-down from homogenate with 250 nM aptamer, salmon sperm DNA, RIPA (1:2)/PBS washes; blots in PBS-BSA 2%; settings: protein: recombinant; tags: GST (N-terminal, pGEX2T); label: 5'-biotin or 32P (assay dependent); hairpin; 13 bp stem from the constant regions
Sequence (P60484 1-200): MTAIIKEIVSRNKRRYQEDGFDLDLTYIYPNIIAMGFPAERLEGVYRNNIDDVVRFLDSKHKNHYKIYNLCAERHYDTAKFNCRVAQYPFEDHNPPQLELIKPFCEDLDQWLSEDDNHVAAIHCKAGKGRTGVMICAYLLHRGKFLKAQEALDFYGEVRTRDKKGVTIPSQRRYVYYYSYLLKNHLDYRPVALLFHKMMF
Parameter: Kd (nM)
All answers are understood in nM, so give the number only.

Input: Quick one: Kd of PTENz14 (structured_DNA) DNA: CGGAATTCCGAGCGTGGGCGTGAGCCCTAAACACAAGTCCGCAGGGGTGTGGTAATATTCGCAGTTGTGTGTACGCCCACGCTCGAG ?
Output: 54
